Measured values drawn from the supplement of paper PMC10126150 for this set.

System: ATP;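 further: ATP exposure 15 min at 22 °C before imaging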
Test: switch fluorescence ratio, 500 uM ATP over buffer (Cy3 cluster intensity, sum of 5 cycles each) (fold (ratio)); higher = stronger signal-on switching upon ATP binding; sequences stand for … in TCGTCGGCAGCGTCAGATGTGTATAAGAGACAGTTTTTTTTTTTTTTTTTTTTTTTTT…TC
Settings: aptamer strand: ATP DNA aptamer (quencher-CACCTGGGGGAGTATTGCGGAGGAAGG + anchor), 100 nM annealed; ATP concentration: 500 uM
PROPERTY_NAME: switch fluorescence ratio
Give bare numbers.

TTTTGTCGCA ... 0.991
AGCTTTGGGA ... 0.995
TAGGTTTAAT ... 0.992
TTAGAGGTTT ... 0.971
TATGAAGAAG ... 0.994

For each entry beneath this line, provide reported switch fluorescence ratio.
1. GTTGGGGTTC
2. AGGGTCAGGT
3. CGGGGATAAG

**A:**
1. 0.982
2. 1
3. 0.981

----------
Tested on: ATP;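 further: ATP exposure 15 min at 22 °C before imaging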
Assay: switch fluorescence ratio, 500 uM ATP over buffer (Cy3 cluster intensity, sum of 5 cycles each) (fold (ratio)); higher = stronger signal-on switching upon ATP binding; sequences stand for … in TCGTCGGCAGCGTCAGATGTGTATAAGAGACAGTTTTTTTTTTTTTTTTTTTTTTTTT…TC
Conditions: aptamer strand: ATP DNA aptamer (quencher-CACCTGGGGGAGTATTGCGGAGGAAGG + anchor), 100 nM annealed; ATP concentration: 500 uM
Threshold rule: switch fluorescence ratio greater than or equal to 1 is true; below that, false.

CGGTCGGGCG ... true
CGATCGTAAT ... true
TTAATTAAAA ... false
TAAACAGTTC ... true
GACGCCGGGT ... true

**Q:** State whether the measured switch fluorescence ratio reaches 1, counting equality as reaching it, for TACACAGCGG
**A:** true

**Q:** State whether the measured switch fluorescence ratio reaches 1, counting equality as reaching it, for AGTGCGGAAG
**A:** true

**Q:** State whether the measured switch fluorescence ratio reaches 1, counting equality as reaching it, for AGTAGGTCTG
**A:** true

**Q:** State whether the measured switch fluorescence ratio reaches 1, counting equality as reaching it, for TAGATTGTAA
**A:** true

**Q:** State whether the measured switch fluorescence ratio reaches 1, counting equality as reaching it, for CGGGGCGCTA
**A:** true

**Q:** State whether the measured switch fluorescence ratio reaches 1, counting equality as reaching it, for TGGGGTGGTT
**A:** true

**Q:** State whether the measured switch fluorescence ratio reaches 1, counting equality as reaching it, for TCCACAGTGG
**A:** true

----------
Tested on: ATP;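 further: ATP exposure 15 min at 22 °C before imaging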
Test: switch fluorescence ratio, 500 uM ATP over buffer (Cy3 cluster intensity, sum of 5 cycles each) (fold (ratio)); higher = stronger signal-on switching upon ATP binding; sequences stand for … in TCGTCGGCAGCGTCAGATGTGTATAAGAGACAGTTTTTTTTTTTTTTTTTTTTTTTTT…TC
Conditions: aptamer strand: ATP DNA aptamer (quencher-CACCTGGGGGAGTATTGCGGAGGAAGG + anchor), 100 nM annealed; ATP concentration: 500 uM
PROPERTY_NAME: switch fluorescence ratio
Numbers only.

GGGTGTATGG ... 0.981
ACAGATGGAA ... 1
TTTGAAGGGA ... 0.996

For each entry beneath this line, provide reported switch fluorescence ratio.
1. TGGGGTTCTG
2. TCATGCATCT
3. GAGCTGTATG
4. TCGTGAACCC
5. GCCCGACTCT
6. TCGGGGGTAA

**A:**
[0.983, 1.01, 1.03, 1.01, 1.01, 1.01]

For each entry beneath this line, provide reported switch fluorescence ratio.
1. ATATATGTCG
2. CTTATTGAGC
3. CCCATTTTTT
4. TTAGTTTTAT
5. AGAGGGGTTT

**A:**
1.07
1.01
1
1
0.98
